Here the recorded drug sensitivity score is given for each entry.
Tested on: Caco-2
testDescription: drug sensitivity score (DSS) for viability; higher = more toxic; extreme values may be limits of the assay
studyConditions: 72 h
Kindly provide the number alone.

Examples with their reported drug sensitivity score follow.
CN1CCN(C(=O)CN[C@@H]2C[C@H]2c2ccc(OCc3ccccc3)cc2)CC1
1.5
CC(C)(C)NS(=O)(=O)c1cncc(-c2cc(F)c3nc(N)nn3c2)c1
0
COc1cc(C(=O)N(CC[C@H]2CCCN2C)C/C(C)=C/c2ccccc2F)cc(OC)c1OC (racemic)
0
CC(O)CN1CCN(CC(=O)[O-])CCN(CC(=O)[O-])CCN(CC(=O)[O-])CC1.[Gd+3] (stereo not drawn)
0

Give drug sensitivity score only, for `Cc1c(F)cc(C(=O)NC2CC2)cc1-c1c(F)cn2c(C(C)(C)C)nnc2c1F` , using Caco-2 data.
0

State recorded drug sensitivity score with Caco-2, entry `[Cl][Ru-]([Cl])([Cl])[Cl].[Na+].c1ccc2[nH]ncc2c1.c1ccc2[nH]ncc2c1` , no comment.
0.5

Look up and report drug sensitivity score, with Caco-2 as system, for `Cc1c(O)cccc1C(=O)N[C@@H](CSc1ccccc1)[C@H](O)CN1C[C@H]2CCCC[C@H]2C[C@H]1C(=O)NC(C)(C)C`
5.8

Give drug sensitivity score for this entry on Caco-2: `C[C@H](CSC(=O)c1ccccc1)C(=O)N1C[C@@H](Sc2ccccc2)C[C@H]1C(=O)O`
0
